The reported measurements were obtained from ChEMBL document CHEMBL1140287.

This document collects Reversal ability values reported for NIH3T3.
readout-name: Reversal ability

mol	observed-value
CC(=O)OC[C@]12[C@H](OC(=O)c3ccccc3)C(=O)[C@@H]3[C@@H](OC(C)=O)[C@]1(OC3(C)C)[C@H](C)C[C@H](OC(C)=O)[C@@H]2OC(=O)c1ccccc1	11.75
CC(=O)O[C@H]1C[C@](C)(O)[C@]23OC(C)(C)[C@H]([C@H](OC(=O)c4ccccc4)[C@H](OC(=O)c4ccccc4)[C@]2(C)[C@H]1OC(=O)c1ccccc1)[C@H]3OC(C)=O	12.72
CC(=O)OC[C@]12[C@H](OC(=O)c3ccccc3)C(=O)[C@@H]3[C@@H](OC(C)=O)[C@]1(OC3(C)C)[C@@](C)(O)C[C@H](OC(=O)c1ccccc1)[C@@H]2OC(=O)c1ccccc1	16.64
